Origin of the recorded values: the supplement of paper PMC10899765

# Test system: MCF10A
# test_name: one-nucleolus phenotype percent effect (relative to siNT 0% and siNOL11 100%); higher = more cells with one nucleolus (ribosome biogenesis inhibition)
# condition_description: 20 nM; 72 h
quantity_kind: one-nucleolus phenotype percent effect

Entry under review: CAGUGUUCAGAGAUGGA [hsa-miR-4255] . Reported one-nucleolus phenotype percent effect?
-51.8%

Fill in: one-nucleolus phenotype percent effect of CAUCAGAAUUCAUGGAGGCUAG [hsa-miR-2115-3p] is ___
15.3%

Field request: one-nucleolus phenotype percent effect | item: UACAGUACUGUGAUAACUGAA [hsa-miR-101-3p]
11.6%

So what does the record say about one-nucleolus phenotype percent effect for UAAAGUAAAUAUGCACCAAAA [hsa-miR-559] ?
-21.4%

Look at this sequence and give its reported one-nucleolus phenotype percent effect. UGUAACAGCAACUCCAUGUGGA [hsa-miR-194-5p]
8.64%

Entry under review: UGUGCAGCAGGCCAACCGAGA [hsa-miR-3944-5p] . Reported one-nucleolus phenotype percent effect?
-7.88%

I have this sequence here, CGUGCCACCCUUUUCCCCAG [hsa-miR-1227-3p] , and I need its recorded one-nucleolus phenotype percent effect.
6.65%
